Tested on: Trichomonas vaginalis
Test: Antimicrobial activity against Trichomonas vaginalis GT3 incubated for 48 hrs followed by compound washout measured after 48 hrs
Type: functional, organism-based
Conditions: GT3, 48 h, read-out: IC50
pIC50: −log10 of the molar value.
Assign true to entries whose pIC50 meets or exceeds 6; assign false to the rest.

Some solved entries appear below for comparison.
• CC(=O)Nc1ncc([N+](=O)[O-])s1 [NITHIAMIDE] = true
• Nc1ncc([N+](=O)[O-])s1 = false
• CCOC(=O)C(=O)Nc1ncc([N+](=O)[O-])s1 = true

Prompt: Decide: pIC50 of COC(=O)Nc1ncc([N+](=O)[O-])s1 >= 6?
Response: true

Prompt: Decide: pIC50 of CCCCCCCCCCCCCCCC(=O)Nc1ncc([N+](=O)[O-])s1 >= 6?
Response: false

Prompt: Decide: pIC50 of CCCCOc1ccc(NC(=O)Nc2ncc([N+](=O)[O-])s2)cc1 >= 6?
Response: true

Prompt: Decide: pIC50 of CCCCC(=O)Nc1ncc([N+](=O)[O-])s1 >= 6?
Response: true

Prompt: Decide: pIC50 of CCOc1ccc(NC(=O)Nc2ncc([N+](=O)[O-])s2)cc1 >= 6?
Response: true

Prompt: Decide: pIC50 of O=C(Nc1ncc([N+](=O)[O-])s1)NC1CCCCC1 >= 6?
Response: false

Each recorded value in this set is attributed to ChEMBL document CHEMBL3112462.
